- TARGET_DESC: T1, PUF4 RNA-binding domain (Saccharomyces cerevisiae, UniProt P25339 537-888)
- T1 sequence: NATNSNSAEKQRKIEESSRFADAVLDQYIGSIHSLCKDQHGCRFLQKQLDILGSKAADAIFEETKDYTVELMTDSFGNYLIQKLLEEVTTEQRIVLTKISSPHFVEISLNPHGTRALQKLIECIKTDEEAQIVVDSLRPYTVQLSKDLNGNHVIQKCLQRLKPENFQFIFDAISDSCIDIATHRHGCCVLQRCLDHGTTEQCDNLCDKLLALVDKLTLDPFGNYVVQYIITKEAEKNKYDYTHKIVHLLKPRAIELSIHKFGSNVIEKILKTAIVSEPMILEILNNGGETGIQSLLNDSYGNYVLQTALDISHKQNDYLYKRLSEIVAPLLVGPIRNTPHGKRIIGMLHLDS
- PROTOCOL_TEXT: Mg; RNA-MaP; 20 mM Na-HEPES pH 7.4, 30 mM KOAc, 0.75 mM MgCl2, 0.1% Tween-20, 5% glycerol, 0.1 mg/mL BSA, 2 mM DTT; 25 C; 0.0125-409.6 nM protein
- MEASUREMENT_CONTEXT: tags: N-His6-TEV cleaved; C-SNAP kept, Cy3B-labelled; label: tethered on chip by stalled RNA polymerase
MEASURED_PARAMETER: log10(Kd) (log10 of the value in nM)

>  <BINDER>
Ie_S4_P4E.1_K4.1_C4.1_H4.1_[+4TC]_A4.1_F4.1_T4.1 (ssRNA) RNA: UUUGACAACUGAUCGUUCUUUCUUGUAUCUAUUAUUCUUUCUCGAUCAGUUGUCUUU

>  <log10(Kd)>
0.82

$$$$
>  <BINDER>
Ic_S2_P5E.1_K5.1_C5.1_H5.1_A5.1_[T5C]_F5.1_[T8A]_[T9C]_[A10C]_T5.1 (ssRNA) RNA: UUUGAUUAAUAUGAUAUCGUUCUUUCUUGUACUAACCUUCUUUCUCGAUAUCAUAUUAAUCUUU

>  <log10(Kd)>
2.36

$$$$
>  <BINDER>
UCUCUUUGUAUAUAUAACUCUCUU (ssRNA) [Id_ii_S1_P3E.3_K3.2_C3.2_[C-2T]_[T-1G]_H3.2_A3.1_F3.1_T3.2_[T9A]_[A10C]]

>  <log10(Kd)>
0.69

$$$$
>  <BINDER>
Id_ii_S4_P4E.3_K4.2_C4.2_[T-1C]_H4.2_A4.1_F4.1_T4.2_[G10C]_[T11G] (ssRNA) RNA: UUUGACAACUGAUCGUUCUUUCUCCUAUAUAUUACGUUCUUUCUCGAUCAGUUGUCUUU

>  <log10(Kd)>
0.96

$$$$
>  <BINDER>
Id_ii_S2_P4E.3_K4.2_C4.2_[C-2T]_H4.2_A4.1_F4.1_T4.2_[G10A] (ssRNA) RNA: UUUGAUUAAUAUGAUAUCGUUCUUUCUUUUAUAUAUUAAUUUCUUUCUCGAUAUCAUAUUAAUCUUU

>  <log10(Kd)>
1.24

$$$$
>  <BINDER>
UCUCUUUGUAGCUUACUCUCUU (ssRNA) [Ic_S1_P5E.1_K5.1_C5.1_H5.1_A5.1_[T5G]_[T6C]_[A7T]_F5.1_[T9A]_[A10C]_T5.1]

>  <log10(Kd)>
1.28

$$$$
>  <BINDER>
UCUCUUUGUACAUGAUCUCUU (ssRNA) [Ic_S1_P4E.1_K4.1_C4.1_H4.1_A4.1_[T5C]_F4.1_[T8G]_T4.1]

>  <log10(Kd)>
1.31

$$$$
>  <BINDER>
UCUCUUCUUGUAUAUUACUUCUCUU (ssRNA) [Id_ii_S1_P4E.2_K4.1_C4.2_H4.1_A4.1_F4.1_T4.2_[G10C]]

>  <log10(Kd)>
-0.15

$$$$
>  <BINDER>
UCUCUUCCUGUAUAUAUGUCUCUU (ssRNA) [Id_ii_S1_P3E.2_K3.1_C3.2_[T-1C]_H3.1_A3.1_F3.1_T3.2_[A10G]]

>  <log10(Kd)>
0.88

$$$$
>  <BINDER>
Ic_S2_P4E.1_K4.1_C4.1_H4.1_A4.1_[T5C]_[A6C]_[T7A]_F4.1_[A9G]_T4.1 (ssRNA) RNA: UUUGAUUAAUAUGAUAUCGUUCUUUCUUGUACCAUGUUCUUUCUCGAUAUCAUAUUAAUCUUU

>  <log10(Kd)>
0.51

$$$$
>  <BINDER>
Id_ii_S4_P3E.3_K3.2_C3.2_[C-2T]_H3.2_A3.1_F3.1_T3.2_[A10T] (ssRNA) RNA: UUUGACAACUGAUCGUUCUUUCUUUUAUAUAUAUUUUCUUUCUCGAUCAGUUGUCUUU

>  <log10(Kd)>
1.85

$$$$
>  <BINDER>
UCUCUUCCUUGUAAAUAUAUCUCUU (ssRNA) [Id_iii_S1_P3E.8_K3.4_C3.3_[T-3C]_H3.1_A3.2_F3.1_T3.2]

>  <log10(Kd)>
1.22

$$$$
>  <BINDER>
Ib_S4_P3E.1_K3.1_C3.1_H3.1_[A4G]_A3.1_[T5C]_F3.1_T3.1 (ssRNA) RNA: UUUGACAACUGAUCGUUCUUUCUUGUGCAUAUUCUUUCUCGAUCAGUUGUCUUU

>  <log10(Kd)>
1.35

$$$$
>  <BINDER>
Ic_S4_P4E.1_K4.1_C4.1_H4.1_A4.1_[A6G]_[T7C]_F4.1_[T8G]_[A9T]_T4.1 (ssRNA) RNA: UUUGACAACUGAUCGUUCUUUCUUGUAUGCGUUUCUUUCUCGAUCAGUUGUCUUU

>  <log10(Kd)>
2.42

$$$$
>  <BINDER>
UCUCUUAAUAUAUAUUACAUCUCUU (ssRNA) [Id_ii_S1_P4E.3_K4.2_C4.2_[C-2A]_[T-1A]_H4.2_A4.1_F4.1_T4.2_[G10C]_[T11A]]

>  <log10(Kd)>
1.69

$$$$
>  <BINDER>
UCUCUUGCUAUAUAUUAAAUCUCUU (ssRNA) [Id_ii_S1_P4E.3_K4.2_C4.2_[C-2G]_[T-1C]_H4.2_A4.1_F4.1_T4.2_[G10A]_[T11A]]

>  <log10(Kd)>
2.10

$$$$
>  <BINDER>
UCUCUUGCACACUAUACCUCUCUU (ssRNA) [Id_ii_S1_P3E.4_K3.3_C3.2_[C-2G]_[T-1C]_H3.3_A3.1_F3.1_T3.2_[T9C]_[A10C]]

>  <log10(Kd)>
2.44

$$$$
>  <BINDER>
UCUCUUUGUCUUAUAUUAUCUCUU (ssRNA) [Ie_S1_P4E.1_K4.1_C4.1_H4.1_[+2TCT]_A4.1_F4.1_T4.1]

>  <log10(Kd)>
1.66

$$$$
>  <BINDER>
UCUCUUUGUAGUAUUGUCUCUU (ssRNA) [Ic_S1_P5E.1_K5.1_C5.1_H5.1_A5.1_[T5G]_F5.1_[A10G]_T5.1]

>  <log10(Kd)>
1.91

$$$$
>  <BINDER>
Ic_S2_P4E.1_K4.1_C4.1_H4.1_A4.1_[A6C]_F4.1_[T8C]_[A9G]_T4.1 (ssRNA) RNA: UUUGAUUAAUAUGAUAUCGUUCUUUCUUGUAUCUCGUUCUUUCUCGAUAUCAUAUUAAUCUUU

>  <log10(Kd)>
1.37

$$$$
>  <BINDER>
UCUCUUCUUGUAUAUUAUAUCUCUU (ssRNA) [Ie_S1_P3E.2_K3.1_C3.2_H3.1_A3.1_[+6T]_F3.1_T3.2]

>  <log10(Kd)>
-0.14

$$$$
>  <BINDER>
UCUCUUUGUACGACCAUCUCUU (ssRNA) [Ic_S1_P5E.1_K5.1_C5.1_H5.1_A5.1_[T5C]_[T6G]_F5.1_[T8C]_[T9C]_T5.1]

>  <log10(Kd)>
3.00

$$$$

Values compiled from paper PMC9352680.
